Tested on: H3K4Me2 in LNCaP cells
Assay: Western blot of histone H3 marks in LNCaP cells
Assay type: cell-based
Details: Homo sapiens, 48 h, Western blot, read-out: EC50 of increase in H3K4Me2 signal
property: EC50

Qu. Could you tell me which EC50 is on file for Cl.Cl.NNCCc1ccc(NC(=O)CCCc2ccccc2)cc1 [Compound 12d, dihydrochloride] ?
Ans. ~2 µM

* * *

# reported k(inact)/Ki(inact); entries follow
Biological target: GST-LSD1 (Homo sapiens)
Conditions: GST-LSD1 inactivation efficiency
Return type: number; implicit unit M⁻¹ s⁻¹.

Cl.Cl.NNCCCCc1ccccc1 [Compound 9h, (4-Phenylbutyl)hydrazine dihydrochloride] : 91.7
NNCCc1ccc(NC(=O)CCCc2ccc(Cl)cc2)cc1.O=S(=O)(O)O [Compound 12f] : 18300
NNCCc1ccc(NC(=O)CCc2c[nH]c3ccccc23)cc1.O=S(=O)(O)O [Compound 15a] : 16700
COc1ccc(CCCC(=O)Nc2ccc(CCNN)cc2)cc1.O=S(=O)(O)O [Compound 12h] : 20000
NNCCc1ccc(NC(=O)CCCc2ccc([N+](=O)[O-])cc2)cc1.O=S(=O)(O)O [Compound 12i] : 12300

# next molecule below
Qu. // query k(inact)/Ki(inact) value for entry NNCCc1ccc(NC(=O)CCc2ccccc2)cc1.O=S(=O)(O)O [Compound 12c]
Ans. 15300
